experimental.system: T1, Cynomolgus Factor P (cynomolgus)
T1 construct: Purified from cynomolgus serum for SET/Biacore; Factor P of cynomolgus serum in the functional assays; also called Cyno Factor P; cyno FP
test.protocol: Biacore SPR, captured Factor P
reported.property: Kd (nM)
Give just the number in nM; leave the unit off.

Data request: Name the reported Kd value associated with the binder NVS965-S (Fab, V domains shown, NVS965 with heavy chain N30 replaced with serine) VH: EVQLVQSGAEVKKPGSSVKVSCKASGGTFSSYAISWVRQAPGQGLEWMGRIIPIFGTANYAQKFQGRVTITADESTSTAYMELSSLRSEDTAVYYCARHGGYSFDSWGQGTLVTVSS VL: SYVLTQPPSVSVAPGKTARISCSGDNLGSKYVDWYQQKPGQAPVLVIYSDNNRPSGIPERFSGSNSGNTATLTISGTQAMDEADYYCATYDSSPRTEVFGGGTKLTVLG
Data returned: 0.06
